I'd be grateful if you could share measured IC50 for these entries.
molecular target: µ opioid receptor (MOR) (Rattus norvegicus); construct: from tissue; host or cells: rat brain (membrane fractions of homogenate); assay: competitive radioligand binding, [3H]DAMGO displacement in rat brain homogenate
Where a SMILES comes first, the peptide text is derived from it. [ ]: non-standard residue; d: D form. The star is where a group is joined. X4 = O=C(NN*)c1cc(C(F)(F)F)cc(C(F)(F)F)c1
Your answer is read as nM, so omit the unit and give the number.

Challenge: Supply reported IC50 belonging to this compound: C[C@@H](NC(=O)[C@@H](N)Cc1ccc(O)cc1)C(=O)N[C@@H](Cc1c[nH]c2ccccc12)C(=O)NN=Cc1cc(C(F)(F)F)cc(C(F)(F)F)c1
Response given: 118

Challenge: Supply reported IC50 belonging to this compound: C[C@@H](NC(=O)[C@@H](N)Cc1ccc(O)cc1)C(=O)NCC(=O)N[C@@H](Cc1c[nH]c2ccccc12)C(=O)NNC(=O)c1cc(C(F)(F)F)cc(C(F)(F)F)c1 [2b] (H-Y[dA]GW-X4)
Response given: 93.5

Challenge: Supply reported IC50 belonging to this compound: N[C@@H](Cc1ccc(O)cc1)C(=O)N1CCC[C@H]1C(=O)N[C@@H](Cc1ccccc1)C(=O)N[C@@H](Cc1ccccc1)C(=O)NN=Cc1cc(C(F)(F)F)cc(C(F)(F)F)c1
Response given: 28.5

Challenge: Supply reported IC50 belonging to this compound: C[C@@H](NC(=O)[C@@H](N)Cc1ccc(O)cc1)C(=O)NCC(=O)N[C@@H](Cc1ccccc1)C(=O)NNC(=O)Cc1cc(C(F)(F)F)cc(C(F)(F)F)c1
Response given: 5.25

Challenge: Supply reported IC50 belonging to this compound: C[C@@H](NC(=O)[C@@H](N)Cc1ccc(O)cc1)C(=O)NCC(=O)N[C@@H](Cc1ccccc1)C(=O)NNC(=O)NN=Cc1cc(C(F)(F)F)cc(C(F)(F)F)c1
Response given: 4.73

* * *

molecular target: µ opioid receptor (MOR) (Rattus norvegicus, UniProt P33535); construct: from tissue; host or cells: rat brain (membrane fractions of homogenate); assay: competitive radioligand binding, [3H]DAMGO displacement in rat brain homogenate
Sequence (P33535 whole entry): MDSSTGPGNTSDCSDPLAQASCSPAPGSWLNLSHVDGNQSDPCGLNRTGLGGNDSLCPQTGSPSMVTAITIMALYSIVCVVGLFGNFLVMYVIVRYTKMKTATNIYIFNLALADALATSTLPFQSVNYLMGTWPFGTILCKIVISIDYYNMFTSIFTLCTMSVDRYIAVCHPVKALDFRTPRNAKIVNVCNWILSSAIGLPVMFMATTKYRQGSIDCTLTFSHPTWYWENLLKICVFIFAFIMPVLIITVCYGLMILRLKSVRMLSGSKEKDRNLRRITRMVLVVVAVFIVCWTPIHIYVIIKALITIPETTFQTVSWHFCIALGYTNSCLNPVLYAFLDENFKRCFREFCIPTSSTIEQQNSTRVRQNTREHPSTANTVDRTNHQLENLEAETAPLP
Where a SMILES comes first, the peptide text is derived from it. [ ]: non-standard residue; d: D form. The star is where a group is joined. X4 = O=C(NN*)c1cc(C(F)(F)F)cc(C(F)(F)F)c1; X3 = FC(F)(F)c1cc(C=NN*)cc(C(F)(F)F)c1
I'd be grateful if you could share measured pIC50 for these entries.
Kindly note that pIC50 refers to -log10 of the concentration in mol/L and answer with the value alone.

Challenge: Supply reported pIC50 belonging to this compound: C[C@@H](NC(=O)[C@@H](N)Cc1ccc(O)cc1)C(=O)NCC(=O)N[C@@H](Cc1ccccc1)C(=O)NNC(=O)c1cc(C(F)(F)F)cc(C(F)(F)F)c1 [1b]
Response given: 6.96

Challenge: Supply reported pIC50 belonging to this compound: C[C@@H](NC(=O)[C@@H](N)Cc1ccc(O)cc1)C(=O)N[C@@H](Cc1ccccc1)C(=O)N[C@@H](Cc1ccccc1)C(=O)NNC(=O)c1cc(C(F)(F)F)cc(C(F)(F)F)c1 [3b] (H-Y[dA]FF-X4)
Response given: 6.41

Challenge: Supply reported pIC50 belonging to this compound: C[C@@H](NC(=O)[C@@H](N)Cc1ccc(O)cc1)C(=O)NCC(=O)N[C@@H](Cc1c[nH]c2ccccc12)C(=O)NN=Cc1cc(C(F)(F)F)cc(C(F)(F)F)c1 [2a, H-Tyr-D-Ala-Gly-Trp-NH-N=CH-3,5-(CF3)2Ph] (H-Y[dA]GW-X3)
Response given: 6.95

* * *

I'd be grateful if you could share measured number of MeW155 cells, % of the control value for these entries.
system: MeW155 human melanoma cells; test: melanoma cell number in culture after incubation with compound; format: cell-based; details: 50 µM, 96 h incubation
Where a SMILES comes first, the peptide text is derived from it. [ ]: non-standard residue; d: D form. The star is where a group is joined. X3 = FC(F)(F)c1cc(C=NN*)cc(C(F)(F)F)c1

Challenge: Report measured number of MeW155 cells, % of the control value on MeW155 human melanoma cells; entry: C[C@@H](NC(=O)[C@@H](N)Cc1ccc(O)cc1)C(=O)N[C@@H](Cc1ccccc1)C(=O)N[C@@H](Cc1ccccc1)C(=O)NN=Cc1cc(C(F)(F)F)cc(C(F)(F)F)c1 [3a, H-Tyr-D-Ala-Phe-Phe-NH-N=CH-3,5-(CF3)2Ph] (H-Y[dA]FF-X3)
Response given: ~ 2 % of the control

Challenge: Report measured number of MeW155 cells, % of the control value on MeW155 human melanoma cells; entry: N[C@@H](Cc1ccc(O)cc1)C(=O)N1CCC[C@H]1C(=O)N[C@@H](Cc1ccccc1)C(=O)N[C@@H](Cc1ccccc1)C(=O)NN=Cc1cc(C(F)(F)F)cc(C(F)(F)F)c1 [5a, H-Tyr-Pro-Phe-Phe-NH-N=CH-3,5-(CF3)2Ph]
Response given: ~ 2 % of the control

Challenge: Report measured number of MeW155 cells, % of the control value on MeW155 human melanoma cells; entry: C[C@@H](NC(=O)[C@@H](N)Cc1ccc(O)cc1)C(=O)N[C@@H](Cc1c[nH]c2ccccc12)C(=O)NN=Cc1cc(C(F)(F)F)cc(C(F)(F)F)c1 [4a, H-Tyr-D-Ala-Trp-NH-N=CH-3,5-(CF3)2Ph]
Response given: 65 ± 10 % of the control

Challenge: Report measured number of MeW155 cells, % of the control value on MeW155 human melanoma cells; entry: C[C@@H](NC(=O)[C@@H](N)Cc1ccc(O)cc1)C(=O)NCC(=O)N[C@@H](Cc1c[nH]c2ccccc12)C(=O)NN=Cc1cc(C(F)(F)F)cc(C(F)(F)F)c1 [2a, H-Tyr-D-Ala-Gly-Trp-NH-N=CH-3,5-(CF3)2Ph] (H-Y[dA]GW-X3)
Response given: 20 ± 4 % of the control

Challenge: Report measured number of MeW155 cells, % of the control value on MeW155 human melanoma cells; entry: N[C@@H](Cc1ccc(O)cc1)C(=O)N1CCC[C@H]1C(=O)N[C@@H](Cc1ccccc1)C(=O)NN=Cc1cc(C(F)(F)F)cc(C(F)(F)F)c1 [6a, H-Tyr-Pro-Phe-NH-N=CH-3,5-(CF3)2Ph]
Response given: 53 ± 3 % of the control

Challenge: Report measured number of MeW155 cells, % of the control value on MeW155 human melanoma cells; entry: C[C@@H](O[C@H]1OCCN(Cc2n[nH]c(=O)[nH]2)[C@H]1c1ccc(F)cc1)c1cc(C(F)(F)F)cc(C(F)(F)F)c1 [aprepitant, reference compound]
Response given: 78 ± 4 % of the control
